MEASURED TARGET: T1, Fc Receptor-like 5 (FcRL5), full length, overexpressed on 3T3 or Raji cells (human, UniProt Q96RD9 16-977)
T1 construct: also called 3T3-FcRL5
T1 sequence: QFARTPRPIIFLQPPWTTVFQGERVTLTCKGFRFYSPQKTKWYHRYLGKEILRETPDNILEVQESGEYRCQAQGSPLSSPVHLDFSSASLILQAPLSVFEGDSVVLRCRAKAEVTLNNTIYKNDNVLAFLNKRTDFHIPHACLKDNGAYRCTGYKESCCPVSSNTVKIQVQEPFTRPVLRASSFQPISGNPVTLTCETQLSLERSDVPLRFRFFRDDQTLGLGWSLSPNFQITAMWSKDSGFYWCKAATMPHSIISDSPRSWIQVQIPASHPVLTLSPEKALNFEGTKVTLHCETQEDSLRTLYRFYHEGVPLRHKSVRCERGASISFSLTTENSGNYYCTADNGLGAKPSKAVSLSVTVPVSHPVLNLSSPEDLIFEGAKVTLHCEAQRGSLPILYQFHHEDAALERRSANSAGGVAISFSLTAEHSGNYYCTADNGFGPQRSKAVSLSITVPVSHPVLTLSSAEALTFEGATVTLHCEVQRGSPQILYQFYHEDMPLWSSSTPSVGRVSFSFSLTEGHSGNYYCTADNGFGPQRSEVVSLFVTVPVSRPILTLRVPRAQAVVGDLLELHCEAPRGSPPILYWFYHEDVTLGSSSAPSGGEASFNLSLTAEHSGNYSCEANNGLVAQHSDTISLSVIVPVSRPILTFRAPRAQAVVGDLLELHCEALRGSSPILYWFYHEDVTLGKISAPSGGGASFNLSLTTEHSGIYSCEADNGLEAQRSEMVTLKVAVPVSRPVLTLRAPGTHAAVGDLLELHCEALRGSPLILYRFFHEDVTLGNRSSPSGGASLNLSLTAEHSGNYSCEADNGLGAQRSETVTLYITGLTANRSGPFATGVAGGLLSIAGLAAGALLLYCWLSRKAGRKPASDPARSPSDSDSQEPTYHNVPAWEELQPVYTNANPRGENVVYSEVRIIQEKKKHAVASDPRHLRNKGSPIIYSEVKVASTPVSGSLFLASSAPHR
EXPERIMENT: phage clone screening on cells
ATTRIBUTE MEASURED: binding result

BINDER | VALUE MEASURED
ET200-013 (scFv, screened as phage clone; entry is VL-linker-VH-His tag-HA tag) scFv: QSVVTQPPSVSGAPGQRVTISCTGSTSNIGAGYDVHWYQQLPGTAPKLLIYTNNFRPSGVPDRFSASKSGTSASLAITGLQAEDEADYYCGTWDSSLSAVVFGGGTKLTVLGSRGGGGSGGGGSGGGGSLEMAEVQLVESGTEVKKPGASVKVSCKASGYMFTSYGLNWVRQAPGQGLEWMGWISANNGKTNYAKKFQDRVTMTRDTSTSTGYMELRSLRSDDTAVYYCARHIGGSYFDRWGQGTLVTVSSTSGQAGQHHHHHHGAYPYDVPDYAS | binds
